target: human CD33 variant Y49L (human, UniProt P20138 18-364); test: flow cytometry, IgG on cells expressing the mutant
Sequence (P20138 18-364 Y49L limits assumed): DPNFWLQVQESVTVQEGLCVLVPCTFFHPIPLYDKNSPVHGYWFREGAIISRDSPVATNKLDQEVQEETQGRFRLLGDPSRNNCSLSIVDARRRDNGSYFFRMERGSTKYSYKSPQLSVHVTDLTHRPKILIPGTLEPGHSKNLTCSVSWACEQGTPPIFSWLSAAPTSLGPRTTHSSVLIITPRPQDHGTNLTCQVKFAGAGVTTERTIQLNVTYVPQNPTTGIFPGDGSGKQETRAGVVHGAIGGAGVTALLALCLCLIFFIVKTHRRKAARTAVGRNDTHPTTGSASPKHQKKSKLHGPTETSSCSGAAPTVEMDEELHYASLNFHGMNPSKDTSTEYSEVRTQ
Quantity: Mean % WT Binding

Mean % WT Binding reading for Refmab #3 (antibody, human IgG1, V domains shown, Tested in IgG format; human IgG1 Fc silent (PG-LALA)) VH: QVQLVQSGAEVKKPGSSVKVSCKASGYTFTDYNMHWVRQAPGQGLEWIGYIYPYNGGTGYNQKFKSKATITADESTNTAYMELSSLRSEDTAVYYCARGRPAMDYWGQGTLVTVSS VL: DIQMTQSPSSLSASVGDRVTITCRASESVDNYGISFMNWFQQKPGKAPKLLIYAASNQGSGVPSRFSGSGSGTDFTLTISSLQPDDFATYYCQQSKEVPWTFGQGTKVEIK : 93.8 % of WT

Mean % WT Binding reading for Refmab #2 (antibody, human IgG1, V domains shown, Tested in IgG format; human IgG1 Fc silent (PG-LALA)) VH: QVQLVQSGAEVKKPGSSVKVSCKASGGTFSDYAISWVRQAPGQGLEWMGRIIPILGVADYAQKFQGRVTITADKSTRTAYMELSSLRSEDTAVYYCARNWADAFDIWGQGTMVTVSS VL: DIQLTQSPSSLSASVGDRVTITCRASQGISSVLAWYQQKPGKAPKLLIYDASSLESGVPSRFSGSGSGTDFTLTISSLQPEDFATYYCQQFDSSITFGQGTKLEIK : 108 % of WT

Mean % WT Binding reading for Refmab #4 (antibody, human IgG1, V domains shown, Tested in IgG format; human IgG1 Fc silent (PG-LALA)) VH: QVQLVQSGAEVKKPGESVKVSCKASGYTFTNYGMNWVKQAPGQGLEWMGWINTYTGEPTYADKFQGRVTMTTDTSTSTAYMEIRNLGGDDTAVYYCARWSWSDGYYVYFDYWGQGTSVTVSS VL: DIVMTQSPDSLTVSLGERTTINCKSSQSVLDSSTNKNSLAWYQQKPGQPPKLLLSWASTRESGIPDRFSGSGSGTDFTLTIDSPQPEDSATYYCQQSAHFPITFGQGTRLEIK : 110 % of WT

Mean % WT Binding reading for Refmab #1 (antibody, human IgG1, V domains shown, Tested in IgG format; human IgG1 (Absolute Antibody hP67.6, Cat. No. Ab00283-10.0); also called hP67.6) VH: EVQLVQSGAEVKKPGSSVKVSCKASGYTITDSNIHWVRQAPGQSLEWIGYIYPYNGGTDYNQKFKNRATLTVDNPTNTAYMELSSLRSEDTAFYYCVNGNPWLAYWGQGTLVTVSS VL: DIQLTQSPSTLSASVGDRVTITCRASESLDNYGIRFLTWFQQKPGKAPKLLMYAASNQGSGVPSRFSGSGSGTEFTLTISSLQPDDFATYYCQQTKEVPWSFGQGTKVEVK : 100 % of WT
